Each recorded value in this set is attributed to patent US12291518B2.

tested_target: THR alpha-LBD (Homo sapiens)
Construct: except that THR alpha-LBD of a final concentration 0.25 nM was used; purchased Invitrogen PV4687
Sequence (P10827 163-410 isoform P10827-2 limits assumed, other chains not shown): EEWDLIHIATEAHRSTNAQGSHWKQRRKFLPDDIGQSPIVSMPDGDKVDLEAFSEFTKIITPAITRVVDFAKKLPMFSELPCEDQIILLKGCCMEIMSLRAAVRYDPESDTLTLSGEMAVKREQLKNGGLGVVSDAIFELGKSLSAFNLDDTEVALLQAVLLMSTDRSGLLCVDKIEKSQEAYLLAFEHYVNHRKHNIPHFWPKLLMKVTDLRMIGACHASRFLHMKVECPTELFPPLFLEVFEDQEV
assay_method_text: THR-α Coactivator Peptide Recruitment Assay (LanthaScreen TR-FRET)
Format: biochemical
condition_set: TR-FRET coactivator recruitment, THR alpha-LBD 0.25 nM
Procedure: A time-resolved FRET (TR-FRET) assay was used to test representative compounds of the application. THR-β Coactivator Peptide Recruitment Assay were conducted by using Invitrogen's LanthaScreen™ TR-FRET Thyroid Receptor beta Assay Kit (Catalog no. PV4686). […] After a gentle mix and incubation at room temperature for 2 h, the signal was read on the EnVision Multilabel Plate Reader at wavelengths of 520 nm and 495 nm. […]
readout_label: THRα Emax

Example compounds with recorded THRα Emax:
[
  {
    "compound": "N#CC1(NS(=O)(=O)c2cc(Oc3c(Cl)cc(-n4nc(C(F)F)c(=O)[nH]c4=O)cc3Cl)ncc2O)CC1 [Compound 135]",
    "THRα Emax": "A (85~110)"
  },
  {
    "compound": "CCS(=O)(=O)c1cc(Oc2c(Cl)cc(-n3nc(C(F)F)c(=O)[nH]c3=O)cc2Cl)ncc1O [Compound 151]",
    "THRα Emax": "A (85~110)"
  },
  {
    "compound": "O=c1[nH]c(=O)n(-c2cc(Cl)c(Oc3ccc(O)c(S(=O)(=O)N[C@@H]4CCOC4)c3)c(Cl)c2)nc1C(F)F [Compound 30]",
    "THRα Emax": "A (85~110)"
  },
  {
    "compound": "O=c1[nH]c(=O)n(-c2cc(Cl)c(Oc3cc(S(=O)(=O)NC[C@H]4C[C@H](O)C4)c(O)cn3)c(Cl)c2)nc1C(F)F [Compound 133]",
    "THRα Emax": "B (40~85)"
  },
  {
    "compound": "Cc1cc(-n2nc(C(F)F)c(=O)[nH]c2=O)cc(C)c1Oc1cc(S(=O)(=O)N[C@H]2C[C@H](O)C2)c(O)cn1 [Compound 166]",
    "THRα Emax": "B (40~85)"
  },
  {
    "compound": "N#C[C@H]1C[C@@H](NS(=O)(=O)c2cc(Oc3c(Cl)cc(-n4nc(C(F)F)c(=O)[nH]c4=O)cc3Cl)ccc2O)C1 [Compound 69]",
    "THRα Emax": "A (85~110)"
  }
]

## Input Name the recorded THRα Emax of O=c1[nH]c(=O)n(-c2cc(Cl)c(Oc3ccc(O)c(S(=O)(=O)NC4CC5(CC(O)C5)C4)c3)c(Cl)c2)nc1C(F)F (stereo not shown) [Compound 74] , assay system THR alpha-LBD (Homo sapiens).
## Output B (40~85)

## Input Give measured THRα Emax for O=c1[nH]c(=O)n(-c2cc(Cl)c(Oc3ccc(O)c(S(=O)(=O)[C@H]4C[C@@H](O)C4)c3)c(Cl)c2)nc1C(F)F [Compound 100] (THR alpha-LBD (Homo sapiens)).
## Output A (85~110)

## Input GET THRα Emax where system = THR alpha-LBD (Homo sapiens) and item = O=c1[nH]c(=O)n(-c2cc(Cl)c(Oc3cc(S(=O)(=O)N[C@H]4C[C@H](O)C4)c(O)cn3)c(Cl)c2)nc1C(F)F [Compound 126]
## Output A (85~110)
